Test system: C. perfringens KYA 13123
Assay: microbe, parasite or virus in culture
Type: cell-based
Conditions: Clostridium perfringens, KYA13123
MIC strictly under 0.1 µg/mL means Y; at 0.1 µg/mL or over means N.

**Q:** Regarding C[C@H]1CN(c2c(F)cc3c(=O)c(C(=O)O)cn4c3c2OC[C@@H]4C)C[C@H]1N.Cl (mixture of isomers) , kindly confirm whether its MIC is beneath 0.1 µg/mL.
**A:** N

**Q:** Does C[C@@H]1CN(c2c(F)cc3c(=O)c(C(=O)O)cn(C4CC4)c3c2Cl)C[C@H]1N (relative stereo) have MIC strictly under 0.1 µg/mL?
**A:** Y

**Q:** A record lists CC1CN(c2c(F)cc3c(=O)c(C(=O)O)cn(C4CC4)c3c2Cl)CC1CN (stereo not shown) . Is its MIC below 0.1 µg/mL?
**A:** Y

**Q:** Please check: MIC for CC1COc2c(N3C[C@@H](N)[C@@H](C)C3)c(F)cc3c(=O)c(C(=O)O)cn1c23.Cl (relative stereo) , strictly under 0.1 µg/mL or not?
**A:** N

**Q:** Please let me know if C[C@H]1CN(c2c(F)cc3c(=O)c(C(=O)O)cn(CCF)c3c2F)C[C@H]1N (relative stereo) shows MIC below 0.1 µg/mL.
**A:** N

###

Test system: B. fragilis 0558
Test: MIC, in vitro antibacterial activity (standard strains)
Format: cell-based, Bacteroides fragilis
Conditions: Bacteroides fragilis, 0558; 10^6 cells/ml; Gram -; read-out: MIC
experimental_readout: MIC (µg/mL)
The answer is to be given in µg/mL; state only the numeric part.

{"columns": ["molecule", "assay_target", "readout_unit", "MIC"],
 "data": [
  ["CCNCC1CN(c2c(F)cc3c(=O)c(C(=O)O)cn(C4CC4)c3c2F)CC1C (stereo not drawn)", "B. fragilis 0558", "µg/mL", 0.39],
  ["CNCC1CN(c2c(F)cc3c(=O)c(C(=O)O)cn(C4CC4)c3c2F)CC1C (stereo not drawn)", "B. fragilis 0558", "µg/mL", 0.78],
  ["CNCC1CN(c2c(F)cc3c(=O)c(C(=O)O)cn(C4CC4)c3c2Cl)CC1C (stereo not drawn)", "B. fragilis 0558", "µg/mL", 0.1],
  ["C[C@H]1CN(c2c(F)cc3c(=O)c(C(=O)O)cn(C4CC4)c3c2F)C[C@H]1N.Cl (relative stereo)", "B. fragilis 0558", "µg/mL", 0.39],
  ["C[C@H]1CN(c2c(F)cc3c(=O)c(C(=O)O)cn(C4CC4)c3c2Br)C[C@H]1N (relative stereo)", "B. fragilis 0558", "µg/mL", 0.05]
]}

Form field MIC, entry CCn1cc(C(=O)O)c(=O)c2cc(F)c(N3C[C@@H](N)[C@@H](C)C3)c(F)c21 (relative stereo) : 1.56

MIC for CCn1cc(C(=O)O)c(=O)c2cc(F)c(N3CCNCC3)cc21 [NFLX, norfloxacin, reference compound] is 25

// sample C[C@@H]1CN(c2c(F)cc3c(=O)c(C(=O)O)cn(C4CC4)c3c2Cl)C[C@H]1N (relative stereo) , its MIC was 0.05

Per the records, this molecule ( C[C@@H]1CN(c2c(F)cc3c(=O)c(C(=O)O)cn(C4CC4)c3c2Br)C[C@H]1N (relative stereo) ) has MIC equal to 0.05

The recorded MIC for C[C@H]1CN(c2c(F)cc3c(=O)c(C(=O)O)cn(C4CC4)c3c2Cl)C[C@H]1N (relative stereo) is 0.05

Item: C[C@@H]1CN(c2c(F)cc3c(=O)c(C(=O)O)cn(C4CC4)c3c2F)C[C@H]1N (relative stereo) | MIC: 0.2

# MIC (molecule: CC1CN(c2c(F)cc3c(=O)c(C(=O)O)cn(C4CC4)c3c2Cl)CC1N (stereo not drawn) ) is 0.05

For record CC1CN(c2c(F)cc3c(=O)c(C(=O)O)cn(C4CC4)c3c2F)CC1N.Cl (stereo not drawn) the listed MIC is 0.39

Summary for this molecule, CCn1cc(C(=O)O)c(=O)c2cc(F)c(N3C[C@@H](N)[C@@H](C)C3)c(Cl)c21 (relative stereo) : MIC is 0.78

The molecule listed as C[C@H]1CN(c2c(F)cc3c(=O)c(C(=O)O)cn(CCF)c3c2Cl)C[C@H]1N (relative stereo) has a reported MIC of 1.56
